target: WRN (BV08), human Werner helicase (Uniprot Q14191, amino acids 517-1235 with L1074F point mutation) (Homo sapiens (Human), UniProt Q14191, L1074F); test: WRN (BV08) ADP-Glo assay; conditions: class symbols A-E, read-out: ADP-Glo_hWRN_IC50
Sequence (Q14191 other isoform, or with tags, fused parts or gaps L1074F (already in the parent)): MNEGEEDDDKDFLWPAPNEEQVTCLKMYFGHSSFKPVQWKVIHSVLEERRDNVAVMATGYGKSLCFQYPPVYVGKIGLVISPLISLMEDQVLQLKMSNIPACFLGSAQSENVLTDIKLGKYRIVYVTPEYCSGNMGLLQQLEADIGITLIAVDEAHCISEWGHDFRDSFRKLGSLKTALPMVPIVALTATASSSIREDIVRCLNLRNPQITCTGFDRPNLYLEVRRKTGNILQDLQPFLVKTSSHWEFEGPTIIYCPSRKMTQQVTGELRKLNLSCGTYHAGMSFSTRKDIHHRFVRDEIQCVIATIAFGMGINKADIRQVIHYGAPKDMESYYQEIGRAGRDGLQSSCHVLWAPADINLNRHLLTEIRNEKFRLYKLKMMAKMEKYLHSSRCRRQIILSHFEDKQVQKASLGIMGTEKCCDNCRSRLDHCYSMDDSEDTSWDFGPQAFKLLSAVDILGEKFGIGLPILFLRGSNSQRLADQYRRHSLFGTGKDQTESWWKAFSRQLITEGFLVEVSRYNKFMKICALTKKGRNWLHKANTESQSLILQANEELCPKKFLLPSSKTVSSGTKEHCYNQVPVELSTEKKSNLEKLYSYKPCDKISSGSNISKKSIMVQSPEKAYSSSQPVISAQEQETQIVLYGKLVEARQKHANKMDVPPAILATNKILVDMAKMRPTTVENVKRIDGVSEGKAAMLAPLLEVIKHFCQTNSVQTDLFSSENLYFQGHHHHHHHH
property.name: IC50

Known results for compounds:
{"columns": ["compound", "property.name", "assay.value"],
 "data": [
  ["CCc1c(N2CCN(C(=O)c3c(O)ccnc3OC)CC2)c(=O)c2ncc(C)nc2n1CC(=O)Nc1ccc(C(F)(F)F)cc1Cl [I-6]", "IC50", "5 to 50 nM"],
  ["CCc1c(N2CCN(C(=O)c3ncnc(C)c3O)C[C@H]2C)c(=O)c2nc(N(C)C)cnc2n1CC(=O)Nc1ccc(C(F)(F)F)cc1Cl [I-99]", "IC50", "5 to 50 nM"]
]}

// for each compound below, give its IC50
1. CCc1c(N2CCN(C(=O)c3ncnc(C)c3O)[C@H]3CC[C@@H]32)c(=O)c2nc(N(C)[C@H]3C[C@H](OC)C3)cnc2n1CC(=O)Nc1ccc(C(F)(F)F)cc1Cl [I-267]
2. CCc1c(N2CCN(C(=O)c3ncnc(C)c3O)CC2)c(=O)c2nc(C=C(C)C)cnc2n1CC(=O)Nc1ccc(C(F)(F)F)cc1Cl [I-37]
3. CCc1c(N2CCN(C(=O)c3ccc4cn[nH]c4c3O)CC2)c(=O)c2ncc(C)nc2n1CC(=O)Nc1ccc(C(F)(F)F)cc1Cl [I-33]
4. CCc1c(N2CCN(C(=O)c3ncnc(C)c3O)[C@@H]3CC[C@H]32)c(=O)c2nc(N(C)C3CC3)cnc2n1CC(=O)Nc1ccc(C(F)(F)F)cc1Cl (single isomer, unassigned) [I-169]

1. 5 to 50 nM
2. ≤ 5 nM
3. 5 to 50 nM
4. 5 to 50 nM

Below are some compounds; for each one, tell me its IC50.
1. CCc1c(N2CCN(C(=O)c3ncnc(C)c3O)CC2)c(=O)c2nc(N(C)C)cnc2n1CC(=O)Nc1ccc(C(F)(F)F)cc1Cl [I-14]
2. CCc1c(N2CCN(C(=O)c3ncnc(C)c3O)C3COCC32)c(=O)c2nc(N(C)C)cnc2n1CC(=O)Nc1ccc(C(F)(F)F)cc1Cl (single isomer, unassigned) [I-294]
3. CCc1c(N2CCN(C(=O)c3ncnc(C)c3O)[C@@H]3CC(F)(F)C[C@H]32)c(=O)c2nc(N(C)C)cnc2n1CC(=O)Nc1ccc(C(F)(F)F)cc1Cl (single isomer, unassigned) [I-297]
4. CCc1c(N2CCN(C(=O)c3ncnc(C)c3O)CC2)c(=O)c2nc(C3=CCN(C(=O)OC)C3)cnc2n1CC(=O)Nc1ccc(C(F)(F)F)cc1Cl [I-159]
5. CCc1c(N2CCN(C(=O)c3ncnc(C)c3O)CC2)c(=O)c2nc(N(C)C3CC3)cnc2n1CC(=O)Nc1ccc(C(F)(F)F)cc1Cl [I-58]
6. CCc1c(N2CCN(C(=O)c3ncnc(C)c3O)CC2)c(=O)c2nc(Cl)cnc2n1CC(=O)Nc1ccc(C(F)(F)F)cc1Cl [I-19]

1: 5 to 50 nM; 2: > 500 nM; 3: 100 to 500 nM; 4: 5 to 50 nM; 5: 5 to 50 nM; 6: 5 to 50 nM
